Test system: HCC-2998 colon
Assay: NCI-60 one-dose screen, 48 h (100 = growth as untreated, 0 = no growth, -100 = all killed)
Conditions: 10 µM
The panel holds about 83,000 compounds, 20% with a hit somewhere; the sample as a whole holds those more often.

# GIVEN SMILES, UNIT ANNOTATION, growth
rows = [
    ("Cc1c(Cn2c(C)nc3c(C(=O)O)cc(N4CCOCC4)cc32)cccc1C(F)(F)F", "%", 103),
    ("COc1cc(C(=O)NNC(=O)c2ccc(NC(=O)CCl)cc2)cc(OC)c1OC", "%", 88.7),
    ("CCCCCCCC(=O)SCC/C=C/[C@@H]1CC(=O)NCc2cc(ccn2)C2=N[C@@](C)(CS2)C(=O)N[C@@H](C(C)C)C(=O)O1", "%", -67.8),
    ("CNC(=O)c1ccc(Nc2ncc(C(F)(F)F)c(NCc3nccnc3N(C)S(C)(=O)=O)n2)cc1", "%", 8.5),
    ("Cc1nc(N)sc1-c1ccnc(Nc2ccc(N3CCOCC3)cc2)n1", "%", 77.8),
]

meta.source: PubChem BioAssay (NCI)
